SYSTEM: Platelet-activating factor receptor (Homo sapiens, UniProt P25105); note: in other assays of this panel Not Active means under 50% inhibition at 10 µM
Sequence (P25105 whole entry): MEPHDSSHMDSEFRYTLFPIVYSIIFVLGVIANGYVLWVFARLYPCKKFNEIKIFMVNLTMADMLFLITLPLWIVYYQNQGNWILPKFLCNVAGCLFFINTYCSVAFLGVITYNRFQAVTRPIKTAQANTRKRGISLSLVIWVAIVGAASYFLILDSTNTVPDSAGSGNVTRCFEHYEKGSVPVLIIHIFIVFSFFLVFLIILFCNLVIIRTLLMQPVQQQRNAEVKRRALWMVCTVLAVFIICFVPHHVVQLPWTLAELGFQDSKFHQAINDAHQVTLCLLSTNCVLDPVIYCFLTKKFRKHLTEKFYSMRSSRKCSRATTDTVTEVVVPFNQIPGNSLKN
Type: tissue-based
MEASUREMENT TYPE: IC50

* CO[C@H]1/C=C/O[C@@]2(C)Oc3c(C)c(O)c4c(O)c(c(/C=N/N5CCN(C6CCCC6)CC5)c(O)c4c3C2=O)NC(=O)/C(C)=C\C=C\[C@H](C)[C@H](O)[C@@H](C)[C@@H](O)[C@@H](C)[C@H](OC(C)=O)[C@@H]1C [RIFAPENTINE] | Not Active
* C[C@]12C=CC(=O)C=C1CC[C@@H]1[C@@H]2[C@@H](O)C[C@@]2(C)[C@H]1CC[C@]2(O)C(=O)CO [PREDNISOLONE] | Not Active
* N=C(N)NC(=O)Cc1c(Cl)cccc1Cl [GUANFACINE] | Not Active
* C[C@@H]1CC[C@@]2(OC1)O[C@H]1[C@@H](O)[C@H]3[C@@H]4CC[C@H]5C[C@@H](O[C@@H]6O[C@H](CO)[C@H](O[C@@H]7O[C@H](CO)C(O)[C@H](O[C@@H]8OC[C@@H](O)[C@H](O)[C@H]8O)[C@H]7O[C@@H]7O[C@H](CO)[C@H](O)[C@H](O[C@@H]8O[C@H](CO)[C@@H](O)[C@H](O)[C@H]8O)[C@H]7O)[C@H](O)[C@H]6O)[C@H](O)C[C@]5(C)[C@H]4CC[C@]3(C)[C@H]1[C@@H]2C (some centres not stated) [DIGITONIN] | Not Active
* C#C[C@]1(OC(C)=O)CC[C@H]2[C@@H]3CCC4=C[C@@H](OC(C)=O)CC[C@@H]4[C@H]3CC[C@@]21C [ETHYNODIOL DIACETATE] | Not Active
* Cc1c(C)c2c(c(C)c1O)CCC(C)(CN1CCN(c3cc(N4CCCC4)nc(N4CCCC4)n3)CC1)O2 (configuration not stated) | Not Active
* CC(=O)Oc1ccc(C(c2ccc(OC(C)=O)cc2)c2ccccn2)cc1 [BISACODYL] | Not Active
* CC(C)=CCC/C(C)=C/CO [GERANIOL] | Not Active
* CN(C)CCOC(c1ccccc1)c1ccccc1 [DIPHENHYDRAMINE] | Not Active
* O=C(N/N=C/c1ccc([N+](=O)[O-])o1)c1cc([N+](=O)[O-])cc([N+](=O)[O-])c1O [NIFURSOL] | Not Active

# compound O=C(Nc1ccc(Br)cc1)c1cc(Br)cc(Br)c1O [TRIBROMSALAN] ; its IC50 = Not Active

# compound O=C1O[C@H]([C@@H](O)CO)C(O)=C1O [ASCORBIC ACID] ; its IC50 = Not Active

# compound C[C@H]1C[C@@H]2[C@H]([C@@H](O)C[C@@]3(C)[C@H]2CC[C@]3(O)C(=O)CO)[C@@]2(C)C=CC(=O)C=C12 [METHYLPREDNISOLONE] ; its IC50 = Not Active

# compound O=C/C=C/c1ccccc1 ; its IC50 = Not Active

# compound C[n+]1ccccc1/C=N/O.[Cl-] [PRALIDOXIME CHLORIDE] ; its IC50 = Not Active

====

SYSTEM: D(1A) dopamine receptor (Homo sapiens)
Sequence (P21728 whole entry): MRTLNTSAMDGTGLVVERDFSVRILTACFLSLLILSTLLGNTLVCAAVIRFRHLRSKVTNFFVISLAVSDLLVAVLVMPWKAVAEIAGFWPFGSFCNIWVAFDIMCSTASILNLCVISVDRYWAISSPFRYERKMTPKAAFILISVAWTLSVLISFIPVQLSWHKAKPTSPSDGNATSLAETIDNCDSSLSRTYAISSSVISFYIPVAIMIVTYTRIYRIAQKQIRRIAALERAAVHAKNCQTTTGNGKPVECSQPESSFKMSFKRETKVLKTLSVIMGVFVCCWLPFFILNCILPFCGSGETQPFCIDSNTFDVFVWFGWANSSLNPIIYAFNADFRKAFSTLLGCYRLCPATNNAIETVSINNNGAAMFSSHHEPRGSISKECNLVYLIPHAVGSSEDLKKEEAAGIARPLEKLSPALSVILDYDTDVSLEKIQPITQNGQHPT
TEST DESCRIPTION: DRUGMATRIX: Dopamine D1 radioligand binding (ligand: [3H] SCH-23390)
Format: cell membranes, CHO, Membrane
CONDITION NOTES: Not Active = under 50% inhibition at 10 µM; read-out: Ki
MEASUREMENT TYPE: pKi
Please report pKi as the negative decimal logarithm of the molar concentration, giving only the number.

# compound C[C@@H](CO)NC(=O)[C@@H]1C=C2c3cccc4[nH]cc(c34)C[C@H]2N(C)C1 ; its pKi = 5.53

These data points were gathered from ChEMBL document CHEMBL1909046.
